# target desc: PLA2G7 (Mus musculus)
# Construct: Proteomes (mouse brain membrane fraction or cell lysates); from tissue; host or cells: mouse brain membrane fraction (or cell lysates, not specified)
# Sequence (Q60963 22-440): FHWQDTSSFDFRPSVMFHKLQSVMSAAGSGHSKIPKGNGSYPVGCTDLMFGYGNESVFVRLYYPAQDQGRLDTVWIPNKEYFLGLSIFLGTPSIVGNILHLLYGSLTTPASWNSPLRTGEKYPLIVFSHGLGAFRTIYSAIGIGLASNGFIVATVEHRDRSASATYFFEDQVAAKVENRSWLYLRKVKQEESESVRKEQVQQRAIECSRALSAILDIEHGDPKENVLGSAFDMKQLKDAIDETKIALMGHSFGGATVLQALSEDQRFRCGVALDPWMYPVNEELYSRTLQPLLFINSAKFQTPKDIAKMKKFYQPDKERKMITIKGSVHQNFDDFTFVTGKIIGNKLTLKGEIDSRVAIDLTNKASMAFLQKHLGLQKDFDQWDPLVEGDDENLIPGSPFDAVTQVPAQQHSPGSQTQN
# experiment summary: In vitro competitive activity-based protein profiling (gel-based, FP-Rh or HT-01 probe)
# Type: biochemical
# setup conditions: mouse brain membrane fraction or cell lysates, 30 min preincubation at 37° C.
assay endpoint: IC50

Value of measured IC50 for the entry NC(=O)c1cnn(C(=O)N2CCN(Cc3cccc(Oc4ccccc4)c3)CC2)c1 : 100 to 1000 nM

Note to self: IC50 recorded for CNC(=O)c1cnn(C(=O)N2CCN(Cc3cccc(Oc4ccccc4)c3)CC2)c1 was < 100 nM

The compound listed as N#Cc1cnn(C(=O)N2CCCN(Cc3ccccc3)CC2)c1 has a reported IC50 of > 1000 nM

// IC50 lookup, compound = Cc1cc(-c2ccccc2)ccc1CN1CCN(C(=O)n2cc(Cl)cn2)CC1 , result: > 1000 nM
